# Protocol Notes: Stability in human liver microsomes assessed as parent compound remaining measured after 60 mins
# Type: ADME, Microsome
# Assay Setup: read-out: Stability
For each of the compounds below, state its remaining at 1 h.
All answers are understood in %, so give the number only.

Exam item: Could you tell me which remaining at 1 h is on file for O=C(Nc1ccc[n+]([O-])c1)c1cc(C(F)(F)F)cnc1Oc1ccc(F)cc1Cl ?
Marked response: 95

Exam item: Could you tell me which remaining at 1 h is on file for COc1cc(F)ccc1Oc1cc(C(F)(F)F)ncc1C(=O)Nc1ccnnc1 ?
Marked response: 95

----------
# Target Or System: Sodium channel protein type 10 subunit alpha (Homo sapiens, UniProt Q9Y5Y9)
# Sequence (Q9Y5Y9 whole entry, looked up): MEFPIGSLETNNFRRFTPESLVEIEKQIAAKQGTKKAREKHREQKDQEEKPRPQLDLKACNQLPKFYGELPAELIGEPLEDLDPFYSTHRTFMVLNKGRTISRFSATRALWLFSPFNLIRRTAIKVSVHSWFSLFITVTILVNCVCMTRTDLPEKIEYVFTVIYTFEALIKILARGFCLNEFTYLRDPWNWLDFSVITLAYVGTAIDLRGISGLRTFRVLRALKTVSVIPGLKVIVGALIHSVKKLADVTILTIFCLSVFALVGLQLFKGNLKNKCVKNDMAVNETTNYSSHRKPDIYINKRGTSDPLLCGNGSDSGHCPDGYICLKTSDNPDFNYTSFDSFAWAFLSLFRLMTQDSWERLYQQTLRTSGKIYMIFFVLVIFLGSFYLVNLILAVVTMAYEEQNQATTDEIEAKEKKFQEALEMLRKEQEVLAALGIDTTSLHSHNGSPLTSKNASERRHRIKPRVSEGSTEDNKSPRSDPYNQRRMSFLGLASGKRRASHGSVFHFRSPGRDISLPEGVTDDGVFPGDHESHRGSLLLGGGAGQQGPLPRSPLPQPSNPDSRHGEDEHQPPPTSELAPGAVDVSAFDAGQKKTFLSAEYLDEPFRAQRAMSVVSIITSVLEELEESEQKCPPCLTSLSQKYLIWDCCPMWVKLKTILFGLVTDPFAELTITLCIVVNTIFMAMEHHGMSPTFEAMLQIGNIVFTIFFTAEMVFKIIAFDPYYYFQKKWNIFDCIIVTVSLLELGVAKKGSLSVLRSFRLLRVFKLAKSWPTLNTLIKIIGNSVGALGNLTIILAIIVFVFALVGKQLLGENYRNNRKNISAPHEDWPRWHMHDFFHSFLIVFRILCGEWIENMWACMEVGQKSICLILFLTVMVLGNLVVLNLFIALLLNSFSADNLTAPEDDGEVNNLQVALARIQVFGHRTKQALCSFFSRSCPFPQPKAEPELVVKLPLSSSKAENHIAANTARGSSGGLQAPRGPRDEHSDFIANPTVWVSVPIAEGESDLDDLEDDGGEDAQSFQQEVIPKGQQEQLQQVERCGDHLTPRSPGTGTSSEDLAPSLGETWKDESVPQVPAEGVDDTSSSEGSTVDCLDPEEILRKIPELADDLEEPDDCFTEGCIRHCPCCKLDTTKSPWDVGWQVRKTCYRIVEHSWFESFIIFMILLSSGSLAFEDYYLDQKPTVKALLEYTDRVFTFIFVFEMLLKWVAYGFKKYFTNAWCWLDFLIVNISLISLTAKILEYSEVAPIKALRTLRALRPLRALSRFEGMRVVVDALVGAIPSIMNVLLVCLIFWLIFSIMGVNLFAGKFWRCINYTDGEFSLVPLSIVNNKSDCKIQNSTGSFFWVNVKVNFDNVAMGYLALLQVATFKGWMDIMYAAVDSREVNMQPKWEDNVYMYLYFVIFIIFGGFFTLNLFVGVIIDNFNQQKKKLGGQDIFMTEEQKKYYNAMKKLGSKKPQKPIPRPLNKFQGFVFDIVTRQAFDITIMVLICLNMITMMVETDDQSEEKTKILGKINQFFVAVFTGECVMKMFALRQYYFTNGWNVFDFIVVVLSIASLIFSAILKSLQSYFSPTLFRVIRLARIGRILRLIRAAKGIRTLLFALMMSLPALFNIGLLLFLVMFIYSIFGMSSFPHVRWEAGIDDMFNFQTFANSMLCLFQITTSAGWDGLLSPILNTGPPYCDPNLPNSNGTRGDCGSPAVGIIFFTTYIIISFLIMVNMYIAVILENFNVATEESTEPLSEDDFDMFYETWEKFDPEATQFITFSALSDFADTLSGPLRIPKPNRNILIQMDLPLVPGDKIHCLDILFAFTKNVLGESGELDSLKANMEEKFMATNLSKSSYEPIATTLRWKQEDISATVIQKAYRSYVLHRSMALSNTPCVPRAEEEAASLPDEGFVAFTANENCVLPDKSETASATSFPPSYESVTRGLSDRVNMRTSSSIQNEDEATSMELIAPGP
# Protocol Notes: Inhibition of Nav1.8 (unknown origin) at 10 uM by Ionflux high-throughput automated patch method
Calls of active or inactive are those of the source. No cut-off for these calls is given here.
Measured Metric: inhibition

Please review the entries below; each comes with its answer.
• CS(=O)(=O)c1cccc(NC(=O)c2cc(C(F)(F)F)cnc2Oc2ccc(F)cc2Cl)c1 = Active
• CS(=O)(=O)c1cccc(NC(=O)c2cc(C(F)(F)F)cnc2Oc2ccc(F)cc2)c1 = Active
• CS(=O)(=O)c1cccc(NC(=O)c2cc(C(F)(F)F)cnc2Oc2ccc(F)cc2F)c1 = Active
• COc1cc(F)ccc1Oc1ncc(C(F)(F)F)cc1C(=O)Nc1cccc(S(C)(=N)=O)c1 (stereo not drawn) = Active
• COc1cc(F)ccc1Oc1nc(C(F)(F)F)ncc1C(=O)Nc1cccc(S(C)(=O)=O)c1 = inactive
• Cc1cc(F)ccc1Oc1ncc(C(F)(F)F)cc1C(=O)Nc1cccc([S@](C)(=N)=O)c1 = Active
• CS(=O)(=O)c1cccc(NC(=O)c2cc(C(F)(F)F)cnc2Oc2ccc(OC(F)(F)F)cc2)c1 = Active
• COc1cc(F)ccc1Oc1nccnc1C(=O)Nc1cccc(S(C)(=O)=O)c1 = inactive
• COc1cc(F)ccc1Oc1cc(C(F)(F)F)ncc1C(=O)Nc1ccnnc1 = Active
• CC(C)Oc1ncc(C(F)(F)F)cc1C(=O)Nc1cccc(S(C)(=O)=O)c1 = inactive

Exam item: // lookup inhibition | system=Sodium channel protein type 10 subunit alpha (Homo sapiens, UniProt Q9Y5Y9) | key= COc1cc(F)ccc1Oc1ncc(C(F)(F)F)cc1C(=O)Nc1cccc([S+](C)[O-])c1 (stereo not drawn)
Marked response: Active

Exam item: // lookup inhibition | system=Sodium channel protein type 10 subunit alpha (Homo sapiens, UniProt Q9Y5Y9) | key= Cc1cc(OC(F)(F)F)ccc1Oc1ncc(C(F)(F)F)cc1C(=O)Nc1cccc(S(C)(=O)=O)c1
Marked response: Active

Exam item: // lookup inhibition | system=Sodium channel protein type 10 subunit alpha (Homo sapiens, UniProt Q9Y5Y9) | key= COc1cc(F)ccc1Oc1ncc(C(F)(F)F)cc1C(=O)Nc1ccc[n+]([O-])c1
Marked response: Active

Exam item: // lookup inhibition | system=Sodium channel protein type 10 subunit alpha (Homo sapiens, UniProt Q9Y5Y9) | key= CS(=O)(=O)c1cccc(NC(=O)c2cc(C(F)(F)F)cnc2Oc2ccc(OC(F)(F)F)cc2Cl)c1
Marked response: Active

Exam item: // lookup inhibition | system=Sodium channel protein type 10 subunit alpha (Homo sapiens, UniProt Q9Y5Y9) | key= CN=S(C)(=O)c1cccc(NC(=O)c2cc(C(F)(F)F)cnc2Oc2ccc(F)cc2OC)c1 (stereo not drawn)
Marked response: Active

Exam item: // lookup inhibition | system=Sodium channel protein type 10 subunit alpha (Homo sapiens, UniProt Q9Y5Y9) | key= COc1cc(F)ccc1Oc1ncc(C(F)(F)F)cc1C(=O)Nc1ccncn1
Marked response: Active

Exam item: // lookup inhibition | system=Sodium channel protein type 10 subunit alpha (Homo sapiens, UniProt Q9Y5Y9) | key= COc1cc(F)ccc1Oc1nc2ccccc2nc1C(=O)Nc1cccc(S(C)(=O)=O)c1
Marked response: Active

Exam item: // lookup inhibition | system=Sodium channel protein type 10 subunit alpha (Homo sapiens, UniProt Q9Y5Y9) | key= COc1cc(F)ccc1Oc1ncc(C(F)(F)F)cc1C(=O)Nc1cccc(S(C)(=O)=O)c1
Marked response: Active
